Tested on: WPMY1-ACTB-RAB5A
Experiment: phenotypically active (imaging signature differs from DMSO and reproducible) at any of 0.3-9 uM (binary (1 = active, 0 = inactive)); higher = active
Settings: treatment time: 24 h
Entries and their phenotypically active
Respond using a number only.

Compound	phenotypically active
C=C(C)[C@H]1Cc2c(ccc3c2O[C@@H]2COc4cc(OC)c(OC)cc4[C@@H]2C3=O)O1	1
CC(C)CC(N(C)C)C1(c2ccc(Cl)cc2)CCC1 (stereo not drawn)	0
CC[C@@H](C)C(=O)O[C@H]1[C@H](O)[C@H]2[C@@H](CN3C[C@@H](C)CC[C@H]3[C@@]2(C)O)C2C[C@]34O[C@]5(O)[C@@H](OC(=O)[C@](C)(O)CC)CC[C@@]3(C)[C@@H]5[C@@H](OC(C)=O)[C@@H](OC(C)=O)[C@H]4[C@@]21O (stereo partly drawn)	0

Task: Suppose we examine the compound Cc1cc2c(C(C)C)c(O)c(O)c(C=O)c2c(O)c1-c1c(C)cc2c(C(C)C)c(O)c(O)c(C=O)c2c1O ; what phenotypically active value has been reported?
Output: 1

Task: Suppose we examine the compound COc1cc(C(=O)O[C@H]2C[C@H]3CC[C@@H](C2)N3C)ccc1O ; what phenotypically active value has been reported?
Output: 0

Task: Suppose we examine the compound C[C@]12C/C(=C\O)C(=O)C[C@@H]1CC[C@@H]1[C@@H]2CC[C@@]2(C)[C@H]1CC[C@]2(C)O ; what phenotypically active value has been reported?
Output: 0

Task: Suppose we examine the compound COC(=O)[C@@]1(O)C[C@H]2O[C@]1(C)n1c3ccccc3c3c4c(c5c6ccccc6n2c5c31)C(=O)NC4 ; what phenotypically active value has been reported?
Output: 1

Task: Suppose we examine the compound CN1C[C@H](CO)C=C2c3cccc4[nH]cc(c34)C[C@H]21 ; what phenotypically active value has been reported?
Output: 0

These data points were gathered from the supplement of paper PMC7411054.
